- subject of test: RIPK1 (recombinant GST-RIPK1 kinase domain, residues 1-327) (Homo sapiens (Human), UniProt Q13546)
- Sequence (Q13546 1-327): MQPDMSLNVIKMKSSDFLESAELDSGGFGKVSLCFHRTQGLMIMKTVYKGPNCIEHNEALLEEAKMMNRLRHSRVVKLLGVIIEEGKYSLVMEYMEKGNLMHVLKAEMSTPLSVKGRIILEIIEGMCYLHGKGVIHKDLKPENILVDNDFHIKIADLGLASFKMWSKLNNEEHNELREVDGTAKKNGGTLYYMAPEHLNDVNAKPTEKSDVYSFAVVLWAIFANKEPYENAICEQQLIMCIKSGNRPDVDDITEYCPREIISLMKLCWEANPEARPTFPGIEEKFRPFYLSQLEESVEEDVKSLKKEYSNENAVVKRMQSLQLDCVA
- protocol notes: RIPK1-ADP-Glo Enzymatic Assay
- Format: biochemical
- condition summary: ADP-Glo; 25 nM GST-RIPK1, 300 μM ATP; assay lower limit ~25 nM; read-out: RIPK1 V0 Ec50
result type: EC50

Dear colleague, could you send me EC50 for each of the items below? Thanks.
1. O=C(c1cc2ccccn2c1)N1CCC2(CC1)O[C@@H]1CC[C@@H](c3cc(F)cc(F)c3)N1C2=O
2. O=C(c1cc(F)ccc1F)N1CCC2(CC1)O[C@@H]1CC[C@@H](c3ccccc3F)N1C2=O
3. O=C1N2[C@@H](CC[C@H]2c2ccccc2)SC12CCN(c1ccnc3ccnn13)CC2

Solution:
< 25 nM
< 25 nM
< 25 nM

----------
- subject of test: RIPK1 (recombinant GST-RIPK1 kinase domain, residues 1-327) (Homo sapiens (Human))
- protocol notes: RIPK1-ADP-Glo Enzymatic Assay
- Assay type: biochemical
- condition summary: ADP-Glo; 25 nM GST-RIPK1, 300 μM ATP; assay lower limit ~25 nM; read-out: RIPK1 V0 Ec50
result type: EC50

Dear colleague, could you send me EC50 for each of the items below? Thanks.
1. O=C(c1ccc(F)cc1F)N1CCC2(CC1)O[C@@H]1CC[C@@H](c3cccc(F)c3)N1C2=O
2. COc1ccc(F)c(C(=O)N2CCC3(CC2)O[C@@H]2CC[C@@H](c4ccccc4)N2C3=O)c1
3. O=C1N2[C@@H](CC[C@H]2c2ccccc2)OC12CCN(c1ncc(-c3ncco3)c(C(F)F)n1)CC2

Solution:
< 25 nM
< 25 nM
< 25 nM

----------
Kindly supply the reported pEC50 values for the records listed here.
- subject of test: RIPK1 (recombinant GST-RIPK1 kinase domain, residues 1-327) (Homo sapiens (Human), UniProt Q13546)
- protocol notes: RIPK1-ADP-Glo Enzymatic Assay
- Type: biochemical
- condition summary: ADP-Glo; 25 nM GST-RIPK1, 300 μM ATP; assay lower limit ~25 nM; read-out: RIPK1 V0 Ec50
pEC50: −log10 of the molar value.

Exercise: # lookup: pEC50 of O=C(c1cc(F)ccc1F)N1CCC2(CC1)O[C@@H]1CC[C@@H](c3cccc(F)c3)N1C2=O [Example 1.6]
Solution: > 7.60

Exercise: # lookup: pEC50 of C#Cc1cccc(C(=O)N2CCC3(CC2)O[C@@H]2CC[C@@H](c4ccccc4)N2C3=O)c1 [Example 6.141]
Solution: > 7.60

Exercise: # lookup: pEC50 of O=C(c1ccccc1)N1CCC2(CC1)O[C@@H]1CC[C@@H](c3cccc(F)c3F)N1C2=O [Example 17.10]
Solution: > 7.60

Exercise: # lookup: pEC50 of O=C1N2[C@@H](CC[C@H]2c2ccccc2)OC12CCN(c1ccc(-c3ncco3)cn1)CC2 [Example 21.16]
Solution: > 7.60

Exercise: # lookup: pEC50 of Cc1nc(N2CCC3(CC2)O[C@@H]2CC[C@@H](c4ccccc4)N2C3=O)ncc1-c1ncco1 [Example 21.11]
Solution: > 7.60

Dear colleague, could you send me pEC50 for each of the items below? Thanks.
1. O=C(c1cc(F)ccc1F)N1CCC2(O[C@@H]3CC[C@@H](c4ccccc4)N3C2=O)C(F)C1 (stereo partly shown) [Example 6.112]
2. O=C1N2[C@@H](CC[C@H]2c2cnccn2)OC12CCN(c1ccnc3c(F)cnn13)CC2 [Example 4.143]
3. Cc1ncc([C@@H]2CC[C@H]3OC4(CCN(c5ccnc6c(F)cnn56)CC4F)C(=O)N32)cc1F (stereo partly shown) [Example 4.130]
4. O=C(c1ccccc1)N1CCC2(CC1)O[C@@H]1CC[C@@H](c3ccc(F)cc3F)N1C2=O [Example 17.14]
5. O=C(c1cccc(Cl)c1F)N1CCC2(CC1)O[C@@H]1CC[C@@H](c3cc(F)cc(F)c3)N1C2=O [Example 5.60]

Solution:
["> 7.60", "> 7.60", "> 7.60", "> 7.60", "> 7.60"]

Dear colleague, could you send me pEC50 for each of the items below? Thanks.
1. Cc1cc(F)c(C(=O)N2CCC3(CC2)O[C@@H]2CC[C@@H](c4cc(F)cc(F)c4)N2C3=O)cc1F [Example 5.6]
2. Cc1nc(N2CCC3(CC2)O[C@@H]2CC[C@@H](c4cccc(F)c4)N2C3=O)ccc1C#N [Example 4.77]
3. Cn1cnc(-c2ccc(N3CCC4(CC3)O[C@@H]3CC[C@@H](c5ccccc5)N3C4=O)n3ncnc23)c1 [Example 21.21]
4. CC(=O)c1cnc(N2CCC3(CC2)O[C@@H]2CC[C@@H](c4ccccc4)N2C3=O)cc1Cl [Example 4.186]

Solution:
> 7.60
> 7.60
> 7.60
> 7.60

Dear colleague, could you send me pEC50 for each of the items below? Thanks.
1. N#Cc1cc(N2CCC3(CC2)O[C@@H]2CC[C@@H](c4ccccc4)N2C3=O)ccn1 [Example 4.31]
2. Cc1ccccc1CN1CCC2(CC1)O[C@@H]1CC[C@@H](c3cc(F)cc(F)c3)N1C2=O [Example 22.5]
3. N#Cc1cccc(C(=O)N2CCC3(CC2)O[C@@H]2CC[C@@H](c4ccccc4)N2C3=O)c1F [Example 6.140]
4. CC1CN(C(=O)c2ccccc2)CCC12O[C@@H]1CC[C@@H](c3cc(F)cc(F)c3)N1C2=O (single isomer, unassigned) [Example 2.7]
5. Cc1ccc([C@@H]2CC[C@H]3OC4(CCN(C(=O)c5ccccc5)CC4)C(=O)N32)cc1F [Example 17.15]

Solution:
1. > 7.60
2. 6.67
3. 7.33
4. 7.37
5. > 7.60

----------
- subject of test: RIPK1 (recombinant GST-RIPK1 kinase domain, residues 1-327) (Homo sapiens (Human), UniProt Q13546)
- protocol notes: RIPK1-ADP-Glo Enzymatic Assay
- Assay type: biochemical
- condition summary: ADP-Glo; 25 nM GST-RIPK1, 300 μM ATP; assay lower limit ~25 nM; read-out: RIPK1 V0 Ec50
pEC50: −log10 of the molar value. Counter-ions that a name gives are not always drawn.
Kindly supply the reported pEC50 values for the records listed here.

Exercise: # lookup: pEC50 of O=C(c1ccc2nscc2c1)N1CCC2(CC1)O[C@@H]1CC[C@@H](c3cc(F)cc(F)c3)N1C2=O [Example 6.42]
Solution: > 7.60

Exercise: # lookup: pEC50 of COc1ccc(N2CCC3(CC2)O[C@@H]2CC[C@@H](c4cc(F)cc(F)c4)N2C3=O)n2ncnc12 [Example 19.3, TFA salt]
Solution: > 7.60

Exercise: # lookup: pEC50 of O=C1N2[C@@H](CC[C@H]2c2ccccc2)OC12CCN(c1cc(-c3ccccc3)ncn1)CC2 [Example 4.32]
Solution: > 7.60

Exercise: # lookup: pEC50 of O=C(c1ccn2ccccc12)N1CCC2(CC1)O[C@@H]1CC[C@@H](c3cc(F)cc(F)c3)N1C2=O [Example 5.68]
Solution: > 7.60

Exercise: # lookup: pEC50 of O=C1N2[C@@H](CC[C@H]2c2ccccc2F)OC12CCN(c1ncc(Br)c3ncnn13)CC2 [Example 4.240]
Solution: > 7.60

# ---- query molecule ----
Exercise: # lookup: pEC50 of COC(=O)c1cnc(N2CCC3(CC2)O[C@@H]2CC[C@@H](c4ccccc4)N2C3=O)cc1Cl [Example 4.211]
Solution: > 7.60
